protocol-notes: Human HepG2 cell viability assay in 384 well format
Format: toxicity, cell-based
Parameters: dose 125 nL, time 70.5 hour; concentration not given beside the values
reported-conditions: HepG2 cells, read-out: Inhibition
The entries below are paired with their reported cytotoxicity at 70.5 h.
Give the quantity in %, number only.

{"compound": "CCn1ccc(CN(C)C(=O)CSc2nnc(N)s2)n1", "experimental-endpoint": "cytotoxicity at 70.5 h", "observed": -2.09}
{"compound": "O=C(NCCCOCC1CC1)Nc1cccnc1N1CCOCC1", "experimental-endpoint": "cytotoxicity at 70.5 h", "observed": -5.01}
{"compound": "Cc1ccc(-c2ncc(CNc3cnccc3CO)s2)cc1", "experimental-endpoint": "cytotoxicity at 70.5 h", "observed": 3.65}
{"compound": "CCS(=O)(=O)N1CCC2(CCC(N3CCCC3)c3ccccc32)CC1 (centres undefined)", "experimental-endpoint": "cytotoxicity at 70.5 h", "observed": -10.6}
{"compound": "CC(NC(=O)CCn1cccn1)c1ccc2c(c1)OCCO2 (centres undefined)", "experimental-endpoint": "cytotoxicity at 70.5 h", "observed": 14.2}
{"compound": "COCCNC(=O)CN1CCCC1c1c(C)nn(C)c1Cl (centres undefined)", "experimental-endpoint": "cytotoxicity at 70.5 h", "observed": -1.71}
{"compound": "c1cc([C@H]2C[C@@H]3CCN(Cc4nccs4)C[C@H]3O2)ncn1", "experimental-endpoint": "cytotoxicity at 70.5 h", "observed": -3.39}
{"compound": "CCOC1CCCN(C(=O)Nc2cnn(CC(F)F)c2)C1 (centres undefined)", "experimental-endpoint": "cytotoxicity at 70.5 h", "observed": -9.21}

For this compound ( CCN(Cc1ccccc1)C1CCN(c2cc(C)nn2C)C1=O (centres undefined) ), measured cytotoxicity at 70.5 h is -8.27

For COc1ncccc1C(=O)N1CCCC(n2ccnc2C)C1 (centres undefined) the compound record lists cytotoxicity at 70.5 h as -10.3

---

protocol-notes: Human HepG2 cell viability assay in 384 well format
Assay type: toxicity, cell-based
Design: dose 125 nL, time 70.5 hour; concentration not given beside the values
reported-conditions: HepG2 cells, read-out: Inhibition
experimental-endpoint: cytotoxicity at 70.5 h (%)
Number in %, nothing else.

{"compound": "CNC(=O)COC1COC2(CCN(Cc3cccnc3)CC2)C1 (stereo unspecified)", "cytotoxicity at 70.5 h (%)": -9.98}
{"compound": "CC(C)c1nnc(CCC(=O)N2CCOC(c3cnccn3)C2)o1 (stereo unspecified)", "cytotoxicity at 70.5 h (%)": -5.45}

Record summary for CS(=O)(=O)N1CCCCC1c1ccc(Nc2cnccn2)nc1 (stereo unspecified) : reported cytotoxicity at 70.5 h = -7.53

Form: compound = COc1c(C2CCCN2CC(=O)Nc2cc(C)nn2C)c(C)nn1C (stereo unspecified) ; cytotoxicity at 70.5 h = -3.3

---

protocol-notes: Human HepG2 cell viability assay in 384 well format
Type: toxicity, cell-based
Design: dose 125 nL, time 70.5 hour; concentration not given beside the values
reported-conditions: HepG2 cells, read-out: Inhibition
experimental-endpoint: cytotoxicity at 70.5 h (%)
Your answer should be a plain number; it is taken to be in %.

Example entries begin here.
{"molecule": "CN1CCN([C@H]2CCN(C(=O)c3cc(Cl)cn3C)C[C@H]2CCCO)CC1", "units": "%", "observed": -14.3}
{"molecule": "CC(=O)N(C)c1nc(CN2CCCC2Cn2nc(C)cc2C)cs1 (stereo not drawn)", "units": "%", "observed": -3.11}
{"molecule": "NC(=O)c1ccc(NC(=O)CCN2CCCC(N3CCCC3)C2)cc1 (stereo not drawn)", "units": "%", "observed": 12.4}
{"molecule": "O=C(Nc1ccccc1F)N(CCO)CCOCC(F)(F)F", "units": "%", "observed": -4.12}

For this molecule ( COc1ccc(C(=O)N2CCC(C3CCN(c4ncccn4)CC3)C2)o1 (stereo not drawn) ), measured cytotoxicity at 70.5 h is 2.75

---

protocol-notes: Human HepG2 cell viability assay in 384 well format
Format: toxicity, cell-based
Set-up: dose 125 nL, time 70.5 hour; concentration not given beside the values
reported-conditions: HepG2 cells, read-out: Inhibition
experimental-endpoint: cytotoxicity at 70.5 h (%)
Please respond with the number in % and leave the unit unwritten.

Data point: CN(Cc1ccc(-n2ccnc2)cc1)Cc1ncc[nH]1 ; cytotoxicity at 70.5 h = -6.87

# cytotoxicity at 70.5 h (molecule: CN(C)CCN(C)C(=O)c1ccccc1-n1cc(CN(C)C)cn1 ) is -0.093

For reference, reported cytotoxicity at 70.5 h for O=C(CC1CCCC1)N1CCC2(CCN2Cc2ccc(F)cc2)C1 (configuration not stated) stands at 1.62

// O=C(NCCCn1cccn1)NCC(c1ccco1)N1CCCC1 (configuration not stated) : cytotoxicity at 70.5 h value = -2.3

So, CN(Cc1nc(-c2cccnc2)no1)C(=O)c1cccn1C ? Its cytotoxicity at 70.5 h was 53.7

Summary for this molecule, Cn1c(C(=O)N2CCC(C3OCCO3)CC2)c(Cl)c2ccccc21 : cytotoxicity at 70.5 h is -9.46

The molecule listed as O=C(c1nnn(-c2ccc(F)cc2)n1)N1CCC(O)CC1 has a reported cytotoxicity at 70.5 h of 2.17

In plain terms, Cc1cccc(NC(=O)NC2CCN(C3CCOC3)CC2)c1 (configuration not stated) has a documented cytotoxicity at 70.5 h of 3.03

Query Fc1ccccc1CN1CCC(c2n[nH]c(C3CC3)n2)CC1 yields cytotoxicity at 70.5 h of -5.65

Per the records, this molecule ( CNc1nc(CNC(=O)Nc2cccc(-c3nnco3)c2)cs1 ) has cytotoxicity at 70.5 h equal to -18.7

get_value(item= NC(=O)CN1CCCN(C(=O)Cc2ccc3c(c2)OCO3)CC1 , readout=cytotoxicity at 70.5 h) returns -2.14

Lookup result for CCOCCCNC(=O)c1cc(C)nc(N2CCCCC2)n1 ; measured cytotoxicity at 70.5 h: -6.17

---

Reported cytotoxicity at 70.5 h is given for each of the following molecules.
protocol-notes: Human HepG2 cell viability assay in 384 well format
Type: toxicity, cell-based
Design: dose 125 nL, time 70.5 hour; concentration not given beside the values
reported-conditions: HepG2 cells, read-out: Inhibition

{"molecule": "COc1ncccc1NC(=O)NCC(O)c1ccc(F)cc1F (stereo not drawn)", "experimental-endpoint": "cytotoxicity at 70.5 h", "observed": "-1.05%"}

Now turn to the next molecule.
Record summary for CCOC(=O)N1CCN(c2nc(N)c3ccccc3n2)CC1 : reported cytotoxicity at 70.5 h = -7.74%

---

# Lookup of reported cytotoxicity at 70.5 h keyed by entry
protocol-notes: Human HepG2 cell viability assay in 384 well format
Assay type: toxicity, cell-based
Design: dose 125 nL, time 70.5 hour; concentration not given beside the values
reported-conditions: HepG2 cells, read-out: Inhibition
Quick note: give the figure in %, leave out the unit.

Illustrative cases are given below, each with its answer.
{"molecule": "N#Cc1cccc(OCC(=O)N(Cc2ccsc2)C2CC2)c1", "cytotoxicity at 70.5 h [%]": -12}
{"molecule": "CCCn1nnnc1COC(=O)C1COc2ccc(Cl)cc2C1 (configuration not stated)", "cytotoxicity at 70.5 h [%]": -5.74}
{"molecule": "CCOC(=O)CNC(=O)N1CCOC(Cc2ccc(OC)cc2)C1 (configuration not stated)", "cytotoxicity at 70.5 h [%]": -0.738}

COc1cc(CN(C)C(=O)NCc2nccs2)ccc1SC has a reported cytotoxicity at 70.5 h of -6.87

In plain terms, C[C@@H]1CN(C(=O)[C@H]2CCCO2)C[C@]12CCN(c1ccsc1)C2=O has a documented cytotoxicity at 70.5 h of -11.7

Reported cytotoxicity at 70.5 h of Cc1ccc(CNC2CC3(CCN(CCO)CC3)c3ccccc32)s1 (configuration not stated) : 4.93

The reported value for Cc1sc(CNS(N)(=O)=O)nc1-c1ccc(Cl)cc1 in terms of cytotoxicity at 70.5 h is -2.62

CN(C)C(CNCc1nc(-c2ccsc2)no1)c1ccco1 (configuration not stated) has a reported cytotoxicity at 70.5 h of -16.8

Looking up O=C(CCOc1ccccc1)N1CCC(Nc2cccnn2)CC1 , I see its cytotoxicity at 70.5 h listed as 1.59

# molecule Cc1cc(CN2CCC(CNC(=O)Cc3ccc(F)cc3)C2)[nH]n1 (configuration not stated) ; its cytotoxicity at 70.5 h = -7.47

---

protocol-notes: Human HepG2 cell viability assay in 384 well format
Type: toxicity, cell-based
Design: dose 125 nL, time 70.5 hour; concentration not given beside the values
reported-conditions: HepG2 cells, read-out: Inhibition
experimental-endpoint: cytotoxicity at 70.5 h (%)
Note: unit % is implicit; provide only the numeric part.

Completed entries (count: 3):
{"compound": "O=C(Cc1ccon1)Nc1cncc(Br)c1O", "units": "%", "cytotoxicity at 70.5 h": -0.318}
{"compound": "CC(C)c1ccc(CNC(C)c2ccc(S(=O)(=O)N(C)C)cc2)cc1 (stereo unspecified)", "units": "%", "cytotoxicity at 70.5 h": -2.78}
{"compound": "O=C(CCc1nc(Cl)n[nH]1)N[C@H]1CC[C@H]1NC1Cc2ccccc2C1", "units": "%", "cytotoxicity at 70.5 h": -9.72}

CC1=C[C@@H](CN2CCC(O)CC2)[C@H](C(C)C)C[C@H]1Cc1nnc(C)o1 yielded cytotoxicity at 70.5 h of -4.6

The reported cytotoxicity at 70.5 h of the compound CC(=O)NCCCSC1CCCN(c2ccccc2Cl)C1=O (stereo unspecified) was -15.3

CCn1ncc2c1C(COC)CN(Cc1cnn(C)c1)C2 (stereo unspecified) has a reported cytotoxicity at 70.5 h of 8.92
